B1: Osa-1-4 twister ribozyme (parent)
chain: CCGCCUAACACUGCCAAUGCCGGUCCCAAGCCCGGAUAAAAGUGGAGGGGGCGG

- Variants of: B1
- PROTOCOL TEXT: self-cleavage, relative activity (ratio to wild type); higher = more cleavage; co-transcriptional
Could you label it Condition met if measured self-cleavage is 0.1 or higher, and Condition not met otherwise?

[
  {
    "INPUT SEQUENCE": "CCGCCUAACACUGCCAAUGCCGGUCCCACGCCCGGAGAAAAGUGGAGGGGGCGG [A29C U37G]",
    "ASSIGNED CLASS": "Condition not met"
  }
]

Hi team, for CCGCCUAACACUGCCAAUGCCGGUCCCAAACCCGGAUAAAAGUGGAGAGGGCGG [G30A G48A] , is the recorded self-cleavage at or above 0.1?
Condition not met

Can you check CCGCCUAACACUGCGAAUGCCGGUCCCAAGCCCGGAUAAAAGAGGAGGGGGCGG [C15G U43A] next?
Condition met

Can you check CCGCCUCACACUGCCAAUGCCGGUCCCAAGCCCGGAUAAAAGUGGGGGGGGCGG [A46G A7C] next?
Condition not met

Can you check CCGCCUAACACUGCCAAUGCCGGGCCCAAGCCCGCAUAAAAGUGGAGGGGGCGG [G35C U24G] next?
Condition not met

Can you check CCGCCUAACACUGCCAAUGCCGGUCCCAAGCCCGCAAAAAAGUGGAGGGGGCGG [G35C U37A] next?
Condition met
